Entry source: PubChem BioAssay AID192

- Test system: BDF1 mice, B16 melanoma ip, median survival T/C
- METHOD DESCRIPTION: NCI In Vivo Anticancer Drug Screen. Data for tumor model B16 Melanoma (intraperitoneal) in B6D2F1 (BDF1) mice
- STUDY CONDITIONS: endpoint: median survival time; dose: 0.78 mg/kg/injection; schedule: Q01DX009 (ip); vehicle: saline; higher = longer survival
Inconclusive results and toxic doses are left out.
Listed next: entries and their corresponding T/C.

CCCCOCCN1CCN(CCCN2c3ccccc3Sc3ccc(C(F)(F)F)cc32)CC1    112 % of control
CN1CCCCC1CCN1c2ccccc2Sc2ccc(Br)cc21 (configuration not stated)    109 % of control
CC(CN(C)C)CN1c2ccccc2Sc2ccc(C(F)(F)F)cc21 (configuration not stated)    109 % of control
[Cl][Ni+2][Cl].[NH-]CCN1CC1    97 % of control
CCCCCC(O)C1C(=O)OC(C)C(O)/C=C/C=C/C=C/C=C/C=C(\C)C(O)C(O)C(O)CC(O)CC(O)CC(O)CC(O)CC1O (configuration not stated)    124 % of control

Hello, I am looking for reported T/C with BDF1 mice, B16 melanoma ip, median survival T/C for O=c1[nH]c(=O)n(C2OC(CO)C(O)C2O)cc1F (configuration not stated) . Could you help? 156 % of control

Hello, I am looking for reported T/C with BDF1 mice, B16 melanoma ip, median survival T/C for CN1CCN(CCCN2c3ccccc3Sc3ccc(Cl)cc32)CC1 . Could you help? 100 % of control
